- Target: Vasopressin V1 receptor (Rattus norvegicus, UniProt P48974+P30560)
- Test method notes: In vivo vasopressin V1-antagonistic activity was determined by measuring the blood pressure response in rats.
- Type: functional, organism-based
*1 amine or outer side, *2 acyl side, *3 side chain or, on linkers, in order; H or OH if unused. Where a SMILES comes first, the peptide text is derived from it. Bridges are numbered along the chain shown (N, C = ends). X1 = O=C(CC1(S[*:2])CCCCC1)[*:1]; X2 = CC(C)(CC(=O)[*:1])S[*:2]
This section presents compounds with their documented pA2 values.
Value kind: pA2

Compound: COc1ccc(C[C@@H]2NC(=O)CC(C)(C)SSC[C@@H](C(=O)N3CCC[C@H]3C(=O)N[C@@H](CCCN=C(N)N)C(=O)N[C@@H](Cc3ccc(O)cc3)C(N)=O)NC(=O)[C@H](CC(N)=O)NC(=O)[C@H](CCC(N)=O)NC(=O)[C@H](Cc3ccccc3)NC2=O)cc1 (Y(Me)FQNCPRY-NH2; linker N-5 via X2)
Value: 8.25
--
Compound: COc1ccc(C[C@@H]2NC(=O)CC3(CCCCC3)SSC[C@@H](C(=O)N3CCC[C@H]3C(=O)N[C@@H](CCCN=C(N)N)C(=O)N[C@H](C(N)=O)[C@@H](C)O)NC(=O)[C@H](CC(N)=O)NC(=O)[C@H](CCC(N)=O)NC(=O)[C@H](Cc3ccccc3)NC2=O)cc1 (Y(Me)FQNCPRT-NH2; linker N-5 via X1)
Value: 8.49
--
Compound: COc1ccc(C[C@@H]2NC(=O)CC3(CCCCC3)SSC[C@@H](C(=O)N3CCC[C@H]3C(=O)N[C@@H](CCCN=C(N)N)C(=O)N[C@H](C(N)=O)C(C)C)NC(=O)[C@H](CC(N)=O)NC(=O)[C@H](CCC(N)=O)NC(=O)[C@H](Cc3ccccc3)NC2=O)cc1 (Y(Me)FQNCPRV-NH2; linker N-5 via X1)
Value: 8.57

###

- Target: Vasopressin V1 receptor (Rattus norvegicus, UniProt P48974+P30560)
- Test method notes: In vivo vasopressin V1-antagonistic activity was determined by measuring the blood pressure response in rats.
- Format: functional, organism-based
*1 amine or outer side, *2 acyl side, *3 side chain or, on linkers, in order; H or OH if unused. Where a SMILES comes first, the peptide text is derived from it. Bridges are numbered along the chain shown (N, C = ends). Ethylenediamine = C(CN[*:2])N[*:1]; X1 = O=C(CC1(S[*:2])CCCCC1)[*:1]; X2 = CC(C)(CC(=O)[*:1])S[*:2]

Compound: COc1ccc(C[C@@H]2NC(=O)CC3(CCCCC3)SSC[C@@H](C(=O)N3CCC[C@H]3C(=O)N[C@@H](CCCN=C(N)N)C(=O)NCC(=O)NCCN)NC(=O)[C@H](CC(N)=O)NC(=O)[C@H](CCC(N)=O)NC(=O)[C@H](Cc3ccccc3)NC2=O)cc1 (Y(Me)FQNCPRG-Ethylenediamine; linker N-5 via X1)
Target: Vasopressin V1 receptor (Rattus norvegicus, UniProt P48974+P30560)
pA2: 8.39
//
Compound: COc1ccc(C[C@@H]2NC(=O)CC(C)(C)SSC[C@@H](C(=O)N3CCC[C@H]3C(=O)N[C@@H](CCCN=C(N)N)C(=O)NCC(N)=O)NC(=O)[C@H](CC(N)=O)NC(=O)[C@H](CCC(N)=O)NC(=O)[C@H](Cc3ccccc3)NC2=O)cc1 [DP[TYR(ME)2]AVP] (Y(Me)FQNCPRG-NH2; linker N-5 via X2)
Target: Vasopressin V1 receptor (Rattus norvegicus, UniProt P48974+P30560)
pA2: 7.96

###

- Target: Vasopressin V2 receptor (Rattus norvegicus)
- Test method notes: In vivo antidiuretic V2-antagonistic activity was measured as changes in urine flow in water-loaded rats and is expressed as the negative logarithm of the ''effective dose divided by the estimated volume of distribution (67 mL/kg)
- Type: functional, organism-based
- Setup conditions: read-out: pA2 (converted)
*1 amine or outer side, *2 acyl side, *3 side chain or, on linkers, in order; H or OH if unused. Where a SMILES comes first, the peptide text is derived from it. Bridges are numbered along the chain shown (N, C = ends). X1 = O=C(CC1(S[*:2])CCCCC1)[*:1]

Molecule: COc1ccc(C[C@@H]2NC(=O)CC3(CCCCC3)SSC[C@@H](C(=O)N3CCC[C@H]3C(=O)N[C@@H](CCCN=C(N)N)C(=O)N[C@@H](CCCN=C(N)N)C(N)=O)NC(=O)[C@H](CC(N)=O)NC(=O)[C@H](CCC(N)=O)NC(=O)[C@H](Cc3ccccc3)NC2=O)cc1 (Y(Me)FQNCPRR-NH2; linker N-5 via X1)
Kb: ~219 nM
--
Molecule: CNC(=O)[C@H](CCCN=C(N)N)NC(=O)[C@@H]1CCCN1C(=O)[C@@H]1CSSC2(CCCCC2)CC(=O)N[C@@H](Cc2ccc(OC)cc2)C(=O)N[C@@H](Cc2ccccc2)C(=O)N[C@@H](CCC(N)=O)C(=O)N[C@@H](CC(N)=O)C(=O)N1 (Y(Me)FQNCPR-NHMe; linker N-5 via X1)
Kb: ~1260 nM
--
Molecule: COc1ccc(C[C@@H]2NC(=O)CC3(CCCCC3)SSC[C@@H](C(=O)N3CCC[C@H]3C(=O)N[C@@H](CCCN=C(N)N)C(=O)N[C@H](C(N)=O)C(C)C)NC(=O)[C@H](CC(N)=O)NC(=O)[C@H](CCC(N)=O)NC(=O)[C@H](Cc3ccccc3)NC2=O)cc1 (Y(Me)FQNCPRV-NH2; linker N-5 via X1)
Kb: ~1580 nM

###

This section presents compounds with their documented Kb values.
- Target: Vasopressin V2 receptor (Rattus norvegicus, UniProt Q00788)
- Sequence (Q00788 whole entry): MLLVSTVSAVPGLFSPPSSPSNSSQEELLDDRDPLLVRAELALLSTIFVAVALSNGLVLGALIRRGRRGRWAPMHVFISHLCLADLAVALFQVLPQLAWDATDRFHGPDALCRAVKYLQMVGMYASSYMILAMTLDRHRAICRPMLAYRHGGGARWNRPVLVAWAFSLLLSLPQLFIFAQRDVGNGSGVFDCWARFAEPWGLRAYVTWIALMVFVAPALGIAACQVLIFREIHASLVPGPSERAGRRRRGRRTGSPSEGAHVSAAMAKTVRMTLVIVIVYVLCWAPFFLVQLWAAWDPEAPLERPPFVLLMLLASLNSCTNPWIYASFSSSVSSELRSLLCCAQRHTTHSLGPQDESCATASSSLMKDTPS
- Test method notes: In vivo antidiuretic V2-antagonistic activity was measured as changes in urine flow in water-loaded rats and is expressed as the negative logarithm of the ''effective dose divided by the estimated volume of distribution (67 mL/kg)
- Assay type: functional, organism-based
- Setup conditions: read-out: pA2 (converted)
*1 amine or outer side, *2 acyl side, *3 side chain or, on linkers, in order; H or OH if unused. Where a SMILES comes first, the peptide text is derived from it. Bridges are numbered along the chain shown (N, C = ends). X1 = O=C(CC1(S[*:2])CCCCC1)[*:1]

Compound: COc1ccc(C[C@@H]2NC(=O)CC3(CCCCC3)SSC[C@@H](C(=O)N3CCC[C@H]3C(=O)N[C@@H](CCCN=C(N)N)C(=O)N[C@H](C(N)=O)[C@@H](C)O)NC(=O)[C@H](CC(N)=O)NC(=O)[C@H](CCC(N)=O)NC(=O)[C@H](Cc3ccccc3)NC2=O)cc1 (Y(Me)FQNCPRT-NH2; linker N-5 via X1)
Kb: ~0.631 µM
--
Compound: COc1ccc(C[C@@H]2NC(=O)CC3(CCCCC3)SSC[C@@H](C(=O)N3CCC[C@H]3C(=O)N[C@@H](CCCN=C(N)N)C(=O)N[C@@H](C)C(N)=O)NC(=O)[C@H](CC(N)=O)NC(=O)[C@H](CCC(N)=O)NC(=O)[C@H](Cc3ccccc3)NC2=O)cc1 (Y(Me)FQNCPRA-NH2; linker N-5 via X1)
Kb: ~1 µM

###

- Target: Vasopressin V2 receptor (Rattus norvegicus) (UniProt Q00788)
- Sequence (Q00788 whole entry): as above
- Test method notes: Dose that reduces urine flow in water-loaded rats
- Format: functional
This section presents molecules with their documented Effective dose values.

Query smiles: C[C@H](NC(=O)[C@H](CCCN=C(N)N)NC(=O)[C@@H]1CCCN1C(=O)[C@H]1CSSC2(CCCCC2)CC(=O)N(C)[C@@H](Cc2ccc(O)cc2)C(=O)N[C@H](Cc2ccccc2)C(=O)N[C@@H](CCC(N)=O)C(=O)N[C@H](CC(N)=O)C(=O)N1)C(N)=O
Result units: nM/kg
Effective dose: 77

Query smiles: CNC(=O)[C@H](CCCN=C(N)N)NC(=O)[C@@H]1CCCN1C(=O)[C@H]1CSSC2(CCCCC2)CC(=O)N(C)[C@@H](Cc2ccc(O)cc2)C(=O)N[C@H](Cc2ccccc2)C(=O)N[C@@H](CCC(N)=O)C(=O)N[C@H](CC(N)=O)C(=O)N1
Result units: nM/kg
Effective dose: 84

Query smiles: CN1C(=O)CC2(CCCCC2)SSC[C@H](C(=O)N2CCC[C@H]2C(=O)N[C@@H](CCCN=C(N)N)C(=O)N[C@@H](CCCN=C(N)N)C(N)=O)NC(=O)[C@@H](CC(N)=O)NC(=O)[C@H](CCC(N)=O)NC(=O)[C@@H](Cc2ccccc2)NC(=O)[C@@H]1Cc1ccc(O)cc1
Result units: nM/kg
Effective dose: 18

Query smiles: C[C@H](O)[C@H](NC(=O)[C@H](CCCN=C(N)N)NC(=O)[C@@H]1CCCN1C(=O)[C@H]1CSSC2(CCCCC2)CC(=O)N(C)[C@@H](Cc2ccc(O)cc2)C(=O)N[C@H](Cc2ccccc2)C(=O)N[C@@H](CCC(N)=O)C(=O)N[C@H](CC(N)=O)C(=O)N1)C(N)=O
Result units: nM/kg
Effective dose: 45

All figures here come from ChEMBL document CHEMBL1125295.
